System: OVCAR-4
PROTOCOL_SUMMARY: NCI tumour cell line growth inhibition, 48 h
Active and inactive are the calls of the source. Cut-off read from the data, not from the text of the source: active = GI50 up to about 1.1 µM and inactive = higher.
Hi! Could you answer with just one of these? yes (1) for active, no (0) for inactive

Example results:
COMPOUND	ASSIGNED_LABEL
Cc1c2cc[n+](C)cc2c(C)c2c1sc1ccccc12	no (0)
CCC/C=C/C=C/C(=O)OC1C(C)C2(O)C3C=C(C)C(=O)C3CC(COC(C)=O)=CC2C2C(C)(C)C12OC(=O)C(C)C (centres undefined)	no (0)
O=CC(I)=C(c1ccccc1)c1ccccc1	no (0)
COc1ccc2c(c1)/C(=C(\C(Cl)=C(Cl)Cl)[N+](=O)[O-])N2	no (0)
COC(=O)[C@H](COC(C)(C)C)NC(=O)N[C@H](C)c1ccccc1	no (0)
CCOC(=O)/C(=C\c1ccccc1)C(=O)CCN1CCOCC1	no (0)
COC(=O)Cc1ccc2c(c1)Sc1ccc(CC(=O)OC)cc1N2C	no (0)
N=c1c2c(=S)n(-c3ccccc3)c(=S)n(-c3ccccc3)c2nc(SCCN2CCOCC2)n1-c1ccccc1	no (0)
Cc1cccc2c1NC(=S)[C@@H]1CCCN1C2=O	no (0)
O=C(O)CCCNc1ncc2c(n1)-c1ccccc1OC2	no (0)

Shift focus to the following entry.
Qu. Which outcome did this test record for the compound C[C@@H]1C(O)CC[C@H](C)C12CC=CC2=O (some centres undefined) ?
Ans. no (0)

----------
Test system: DLD-1
PROTOCOL_SUMMARY: NCI tumour cell line growth inhibition, 48 h
Active and inactive are the calls of the source. Rule as the data show it: active = GI50 up to about 1.1 µM and inactive = higher.
GI50 values for the molecules below.

For orientation, consider the following solved cases.
In [3]: df
Out[3]:
                                   molecule          assay_value
0        Cc1cc(C)c2c(c1)CSCc1cc(C)cc(C)c1-2   33.3 µM (inactive)
1  CC(=O)N/C(=C\c1ccc(/C=C(\NC(C)=O)c2nc3cc(Cl)ccc3[nH]2)cc1)c1nc2ccccc2[nH]1  > 100 µM (inactive)

Qu. I have this molecule here, `COc1cc(C(=O)C/C(CCC(=O)Nc2ccccc2[N+](=O)[O-])=N\NC(=O)CC#N)ccc1O` , and I need its recorded GI50.
Ans. > 100 µM (inactive)

Qu. Check `Cc1c2cc[n+](C)cc2c(C)c2c1sc1ccccc12` too.
Ans. 3.05 µM (inactive)

Qu. Check `Cc1ccc(NC(=O)CCc2nnc(S)[nH]2)cc1` too.
Ans. > 100 µM (inactive)

Qu. Check COC(=O)C1(C(C)C)CCc2c(OC)ccc(OC)c2C1=O (stereo unspecified) too.
Ans. > 100 µM (inactive)

Qu. Check O=C(Nc1ccc(Cl)cc1Cl)C1C(=O)C(=O)N(c2ccc(Cl)cc2Cl)C1=O (stereo unspecified) too.
Ans. > 100 µM (inactive)

Qu. Check `Sc1nnc(COc2ccc(Cl)cc2Cl)[nH]1` too.
Ans. > 100 µM (inactive)

----------
Tested on: OVCAR-3
PROTOCOL_SUMMARY: NCI tumour cell line growth inhibition, 48 h
Activity calls are given as the source filed them. No stated cut-off is given here; in the data, active = GI50 up to about 1.1 µM and inactive = higher.
PROPERTY_NAME: GI50

Qu. I have this compound here, COC(=O)c1cc(S(=O)(=O)NC2=NNC(C)CN2)c(S)cc1Cl (stereo not drawn) , and I need its recorded GI50.
Ans. 38.3 µM (inactive)

Qu. Check COc1ccc2c(c1)C1Oc3ccccc3CC1(O)CO2 (stereo not drawn) too.
Ans. > 100 µM (inactive)

Qu. Check O=S(=O)(CCC[C@H]1[C@@H](CCOCc2ccccc2)C2CCCN1O2)c1ccccc1 (stereo partly drawn) too.
Ans. > 100 µM (inactive)

----------
GI50 values for the compounds below.
System: EKVX
PROTOCOL_SUMMARY: NCI tumour cell line growth inhibition, 48 h
Activity calls are given as the source filed them. No stated cut-off is given here; in the data, active = GI50 up to about 1.1 µM and inactive = higher.

                                   compound          assay_value
0     C/C(=N/c1[nH]c(=O)cc2c1C(=O)CC2)N(C)C  > 200 µM (inactive)
1  Cn1c(=O)oc2cc(C(=S)N3CCC(Cc4ccccc4)CC3)ccc21  > 100 µM (inactive)
2  Cc1cc(=O)oc2c(CNC(CO)C(=O)O)c(O)ccc12 (configuration not stated)  > 100 µM (inactive)
3   COc1cc(OC)c2c(=O)cc(-c3ccccc3F)[nH]c2c1   86.5 µM (inactive)
4  CCOP(=O)(OCC)c1c(C(=O)OC)cc(=O)[nH]c1-c1ccc(C)cc1   3.73 µM (inactive)

Qu. I have this compound here, C/C=C/CC(C)[C@@H](O)[C@H](NC)C(=O)O (some centres not stated) , and I need its recorded GI50.
Ans. > 100 µM (inactive)

Qu. Check `CN(C)C(=S)/N=c1\ssc(=S)n1Cc1ccco1` too.
Ans. 6.9 µM (inactive)

Qu. Check OC(CCNC12CC3CC(CC(C3)C1)C2)c1ccccc1 (configuration not stated) too.
Ans. > 100 µM (inactive)

Qu. Check CCCCCCC(C)CC(CCCCCC)NCCOC(=O)c1ccc([N+](=O)[O-])cc1 (configuration not stated) too.
Ans. 13.7 µM (inactive)

Qu. Check O=c1oc2ccccc2c(O)c1C(C/C(CCN1CCCC1)=N/O)c1ccccc1 (configuration not stated) too.
Ans. > 100 µM (inactive)

Qu. Check `c1csc(-c2ccsc2-c2cccs2)c1` too.
Ans. > 100 µM (inactive)

Qu. Check CC1(C)C2CCC3CC(CCC#N)CCC3C21C#N (configuration not stated) too.
Ans. > 100 µM (inactive)

----------
Tested on: CCRF-CEM
PROTOCOL_SUMMARY: NCI tumour cell line growth inhibition, 48 h
The source made the active and inactive calls. No stated cut-off is given here; in the data, active = GI50 up to about 1.1 µM and inactive = higher.
Hi! Could you answer with just one of these? active, inactive

Example results:
>>> df
                                   compound  assigned_label
0  CCC/C=C/C=C/C(=O)OC1C(C)C2(O)C3C=C(C)C(=O)C3CC(COC(C)=O)=CC2C2C(C)(C)C12OC(=O)C(C)C (centres undefined)          active
1  O=C(/C=C/c1ccc([N+](=O)[O-])cc1)N1CCN(CCOC(c2ccc(F)cc2)c2ccc(F)cc2)CC1        inactive

Qu. Which outcome did this test record for the compound `CCOC(=O)c1nc2ccc(C(F)(F)F)cc2nc1Nc1ccc(F)cc1` ?
Ans. inactive

Qu. Check `COc1cc(-c2ccccc2)cn2c1nc1ccccc12` too.
Ans. inactive

Qu. Check O=C1NC(=O)C2C(=O)NC(=O)C1C2Cc1ccco1 (centres undefined) too.
Ans. inactive

Qu. Check `COc1cc(/C=C2/C(=O)N(C(=O)c3ccccc3O)N=C2C)ccc1O` too.
Ans. active

Qu. Check O=C(CC(=O)N1N=C(N2c3ccccc3Sc3ccccc32)CC1c1ccccc1)Nc1ccc(Cl)cc1 (centres undefined) too.
Ans. inactive

Qu. Check `Cc1cc(C)nc(NS(=O)(=O)c2ccc(NC(=O)c3cccc4c(Nc5ccc(S(=O)(=O)Nc6nc(C)cc(C)n6)cc5)c5ccccc5nc34)cc2)n1` too.
Ans. inactive

Qu. Check `COc1ccc(OC)c(/C=C(/C#N)c2ccccc2)c1` too.
Ans. inactive

----------
Test system: RXF 393
PROTOCOL_SUMMARY: NCI tumour cell line growth inhibition, 48 h
Active and inactive are the calls of the source. No stated cut-off is given here; in the data, active = GI50 up to about 1.1 µM and inactive = higher.
GI50 values for the compounds below.

For orientation, consider the following solved cases.
>>> df
                                   compound  target_system          assay_value
0  COc1ccc([C@H]2CC(=O)C[C@H](c3ccc(OC)cc3)C23C(=O)c2ccccc2C3=O)cc1        RXF 393   2.92 µM (inactive)
1    NCCNCCNCc1c2ccccc2c(CNCCNCCN)c2ccccc12        RXF 393   40.9 µM (inactive)
2        Nc1ccccc1C(=O)CCC1C(=O)NC(=S)NC1=O        RXF 393  > 100 µM (inactive)
3  CCOP(=O)(OCC)c1c(C(=O)OC)cc(=O)[nH]c1-c1ccc(C)cc1        RXF 393   12.5 µM (inactive)
4              COC(=O)CCC(=O)Nc1ccc(Cl)cc1C        RXF 393   > 63 µM (inactive)
5  Oc1ccc(-c2nc(-c3cccnc3)c(-c3ccc(Cl)cc3)[nH]2)cc1        RXF 393   13.3 µM (inactive)

Qu. API: value(readout=GI50, system=RXF 393) for record `CCCS(=O)(=O)/C(=C(\c1ccc(Br)cc1)S(=O)(=O)CCC)c1ccc(Br)cc1`
Ans. > 10 µM (inactive)

Qu. Check `CCCc1cc(COC)c(C#N)c(O)n1` too.
Ans. > 100 µM (inactive)

Qu. Check COc1ccc(C2c3cc4c(cc3OC3(OC)COC(=O)C23)OCO4)c(OC)c1 (stereo unspecified) too.
Ans. 6.59 µM (inactive)

Qu. Check `CN(C)c1ccc(-c2nc(-c3cc4c(ccc5ccccc54)oc3=O)cs2)cc1` too.
Ans. > 100 µM (inactive)

Qu. Check `Cc1nn(C(=O)CC(=O)Nc2ccccc2Cl)c(C)c1/N=N/c1ccccc1Cl` too.
Ans. > 100 µM (inactive)
